Test system: S. cerevisiae SKN7-toxicity growth rescue, plate reader
Test: Yeast SKN7 toxicity growth rescue counterscreen, Saccharomyces cerevisiae, plate reader, dose confirmatory (AID 624258);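 further: growth read after three days of incubation at 30 °C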
The source made the active and inactive calls. How the calls were made is not given here.
Outcomes: y = active, n = inactive

{"columns": ["Compound", "Target Or Test System", "Label Class"],
 "data": [
  ["Cc1onc(-c2ccccc2)c1C(=O)OCc1nnc(-c2ccc([N+](=O)[O-])cc2)o1", "S. cerevisiae SKN7-toxicity growth rescue, plate reader", "y"],
  ["CC(NCCN(C)C)C1CCC2C3CCc4cc(O)ccc4C3CCC12C (stereo unspecified)", "S. cerevisiae SKN7-toxicity growth rescue, plate reader", "y"],
  ["Cc1ccc(NC2=C(NC(=O)c3ccccc3)C(=O)c3ccccc3C2=O)cc1Cl", "S. cerevisiae SKN7-toxicity growth rescue, plate reader", "y"],
  ["CCOC(=O)c1ccc(NC(=O)CC2OCCN(CC)C2=O)cc1 (stereo unspecified)", "S. cerevisiae SKN7-toxicity growth rescue, plate reader", "y"],
  ["Cc1ccc(NC2=CC(=O)C(=O)c3ccccc32)c(C)c1", "S. cerevisiae SKN7-toxicity growth rescue, plate reader", "y"],
  ["CC(C)(C)n1nc(-c2ccc(Cl)cc2)c2c(N)ncnc21", "S. cerevisiae SKN7-toxicity growth rescue, plate reader", "y"],
  ["O=[N+]([O-])c1cc(Cl)ccc1Sc1ccccn1", "S. cerevisiae SKN7-toxicity growth rescue, plate reader", "y"],
  ["COc1ccc(-c2sc3ccccc3c2C#Cc2cncn2C)cc1", "S. cerevisiae SKN7-toxicity growth rescue, plate reader", "y"],
  ["O=C1CC(O)(C(F)(F)F)Oc2c1ccc1ccccc21 (stereo unspecified)", "S. cerevisiae SKN7-toxicity growth rescue, plate reader", "y"],
  ["Cc1cc(-c2ccccc2)n(-c2cc(N/N=C/c3ccccc3O)ncn2)n1", "S. cerevisiae SKN7-toxicity growth rescue, plate reader", "n"],
  ["COC(=O)/C=C\\C(=O)Nc1cccc([N+](=O)[O-])c1", "S. cerevisiae SKN7-toxicity growth rescue, plate reader", "y"],
  ["O=C(O)c1ccc(C(=O)c2cc([N+](=O)[O-])cc([N+](=O)[O-])c2)cc1", "S. cerevisiae SKN7-toxicity growth rescue, plate reader", "y"],
  ["Cc1csc2nc(O)c(C(=O)NCCCc3ccccc3)c(=O)n12", "S. cerevisiae SKN7-toxicity growth rescue, plate reader", "y"],
  ["O=S(=O)(c1cc(C(F)(F)F)ccc1Cl)N1CCN(c2ncnc3ccccc23)CC1", "S. cerevisiae SKN7-toxicity growth rescue, plate reader", "y"],
  ["CC1=CC(=O)C(C(C)C)=C/C1=N/OS(=O)(=O)c1ccccc1", "S. cerevisiae SKN7-toxicity growth rescue, plate reader", "y"],
  ["CCCCC(=O)NC(c1ccc(N(C)C)cc1)c1ccc2cccnc2c1O (stereo unspecified)", "S. cerevisiae SKN7-toxicity growth rescue, plate reader", "y"],
  ["COC1=C(OC)C(=O)C(Sc2ccc3ccccc3c2)=CC1=O", "S. cerevisiae SKN7-toxicity growth rescue, plate reader", "y"],
  ["COc1ccc([C@H]2[C@H]3C=CC[C@@H](C)[C@@H]3C(=O)N2Cc2ccccc2)cc1Cl", "S. cerevisiae SKN7-toxicity growth rescue, plate reader", "y"],
  ["Cc1c2cnccc2c(C)c2c1oc1ccccc12", "S. cerevisiae SKN7-toxicity growth rescue, plate reader", "y"],
  ["CCC(Oc1ccccc1)C(=O)Nc1ncc([N+](=O)[O-])s1 (stereo unspecified)", "S. cerevisiae SKN7-toxicity growth rescue, plate reader", "y"],
  ["O=C1Nc2c(Cl)cc(Cl)cc2C1=O", "S. cerevisiae SKN7-toxicity growth rescue, plate reader", "n"],
  ["O=C(Nc1cccc(-c2nc3ccccc3s2)c1)c1cccs1", "S. cerevisiae SKN7-toxicity growth rescue, plate reader", "y"],
  ["Cc1nc2ccc(NC(=O)COc3cccc(F)c3)cc2s1", "S. cerevisiae SKN7-toxicity growth rescue, plate reader", "y"],
  ["Oc1c(C(Nc2cccc(C(F)(F)F)c2)c2cccnc2)ccc2cccnc12 (stereo unspecified)", "S. cerevisiae SKN7-toxicity growth rescue, plate reader", "y"],
  ["O=C1c2ccccc2NC(c2ccc(Cl)cc2Cl)N1O (stereo unspecified)", "S. cerevisiae SKN7-toxicity growth rescue, plate reader", "y"],
  ["COc1cccc(CNC(=O)CSc2ccc(-c3ccccn3)nn2)c1", "S. cerevisiae SKN7-toxicity growth rescue, plate reader", "y"],
  ["N#CC1=C(N)NC(=S)C(C(N)=O)C1c1ccc(Cl)cc1Cl (stereo unspecified)", "S. cerevisiae SKN7-toxicity growth rescue, plate reader", "y"],
  ["O=[N+]([O-])c1cc2oc3c(c2c(C=NCc2ccccc2)c1O)CCCC3", "S. cerevisiae SKN7-toxicity growth rescue, plate reader", "y"],
  ["Cc1ccc(Nc2c(-c3ccccc3O)nc3cnccn23)cc1", "S. cerevisiae SKN7-toxicity growth rescue, plate reader", "y"],
  ["CC(C)(C)c1cc(CCC(=O)NNC(=S)NC(=O)c2ccccc2)cc(C(C)(C)C)c1O", "S. cerevisiae SKN7-toxicity growth rescue, plate reader", "y"],
  ["CCc1ccccc1OCC(=O)Nc1nc(-c2cccnc2)cs1", "S. cerevisiae SKN7-toxicity growth rescue, plate reader", "y"],
  ["CCCCOc1ccc2c(c1)C(=O)c1cc(O)ccc1-2", "S. cerevisiae SKN7-toxicity growth rescue, plate reader", "y"],
  ["Cc1ccc(C(C)(C)C)cc1S(=O)(=O)Nc1ncnc2sccc12", "S. cerevisiae SKN7-toxicity growth rescue, plate reader", "y"],
  ["O=c1cnn([C@@H]2O[C@H](CO)[C@@H](O)[C@H]2O)c(=O)[nH]1", "S. cerevisiae SKN7-toxicity growth rescue, plate reader", "y"],
  ["CC1Cc2ccccc2N1c1ncnc(N)c1[N+](=O)[O-] (stereo unspecified)", "S. cerevisiae SKN7-toxicity growth rescue, plate reader", "y"],
  ["O=NN(CCc1ccncc1)c1ccc(OCc2ccccc2)cc1", "S. cerevisiae SKN7-toxicity growth rescue, plate reader", "y"],
  ["N#C/C(=C\\c1cccnc1)c1ccc([N+](=O)[O-])cc1", "S. cerevisiae SKN7-toxicity growth rescue, plate reader", "y"],
  ["Cc1c(C(=O)NCCSCc2cccc(C(F)(F)F)c2)cnn1-c1ccc(Cl)cc1", "S. cerevisiae SKN7-toxicity growth rescue, plate reader", "y"],
  ["Cc1ccc([C@@H]2CC=C(C(=O)O)[C@H](c3ccc(Br)cc3)N2S(=O)(=O)c2ccccc2C)cc1", "S. cerevisiae SKN7-toxicity growth rescue, plate reader", "y"],
  ["CC1CCc2sc(-c3n[nH]c(=S)o3)cc2C1 (stereo unspecified)", "S. cerevisiae SKN7-toxicity growth rescue, plate reader", "y"],
  ["Cc1ccc(COc2ccc(Br)cc2/C=N/O)cc1", "S. cerevisiae SKN7-toxicity growth rescue, plate reader", "y"],
  ["COc1ccc(C(=O)NC(=S)NNC(=O)CCc2ccccc2)cc1", "S. cerevisiae SKN7-toxicity growth rescue, plate reader", "y"],
  ["O=C1C(Br)=Cc2cccc3cccc1c23", "S. cerevisiae SKN7-toxicity growth rescue, plate reader", "y"],
  ["CC(/C=N/n1c(COc2ccccc2)n[nH]c1=S)=C\\c1ccccc1", "S. cerevisiae SKN7-toxicity growth rescue, plate reader", "n"],
  ["Cc1csc(NC(=S)Nc2cccc(Cl)c2)n1", "S. cerevisiae SKN7-toxicity growth rescue, plate reader", "y"],
  ["C=CS(=O)(=O)c1ccc(Oc2ccc(S(=O)(=O)C=C)cc2)cc1", "S. cerevisiae SKN7-toxicity growth rescue, plate reader", "y"]
]}

Entry source: PubChem BioAssay AID624258
